experimentalSystem: recombinant human PAI-1 (Homo sapiens, UniProt P05121)
Construct: purchased Molecular Innovations, Inc
Sequence (P05121 24-402): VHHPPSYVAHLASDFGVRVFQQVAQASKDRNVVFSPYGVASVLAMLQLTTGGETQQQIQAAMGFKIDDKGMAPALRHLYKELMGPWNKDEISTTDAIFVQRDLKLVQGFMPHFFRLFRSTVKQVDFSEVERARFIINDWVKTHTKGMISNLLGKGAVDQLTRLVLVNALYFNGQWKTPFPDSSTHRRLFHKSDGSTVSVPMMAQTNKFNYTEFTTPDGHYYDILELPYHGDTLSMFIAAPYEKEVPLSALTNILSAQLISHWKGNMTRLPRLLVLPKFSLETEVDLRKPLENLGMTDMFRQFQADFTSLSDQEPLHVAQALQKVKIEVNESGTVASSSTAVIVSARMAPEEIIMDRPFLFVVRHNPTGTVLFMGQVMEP
protocolDetails: Test Example 2: human PAI-1 inhibitory activity (tPA fluorogenic substrate, pH 7.4 HEPES buffer)
Format: biochemical
condition: human PAI-1; calculated from the inhibition rates
measure: pIC50
Quick note: pIC50 values are minus log10 of concentrations in mol/L.

{"compound": "O=C(O)C(=O)N(CCCCc1ccccc1)c1cc(-c2ccc(OC(F)(F)F)cc2)ccc1OCCCC1CCCC1", "pIC50": 6.19}
{"compound": "CCCCOc1ccc(-c2ccc(OC(F)(F)F)cc2)cc1N(CCCCc1ccccc1)C(=O)C(=O)O", "pIC50": 5.92}
{"compound": "O=C(O)CCc1c(Oc2ccc(OC(F)(F)F)cc2)cccc1Oc1ccc(OC(F)(F)F)cc1", "pIC50": 5.81}

Challenge: Reported pIC50 for `CCCCCCCCOc1ccc(-c2ccc(OC(F)(F)F)cc2)cc1N(CCCCc1ccccc1)C(=O)C(=O)O` : what is it?
Response given: 6.29

Challenge: Reported pIC50 for `CC(C)(C)OCCOc1ccc(-c2ccc(OC(F)(F)F)cc2)cc1N(CCCCc1ccccc1)C(=O)C(=O)O` : what is it?
Response given: 5.71

Challenge: Reported pIC50 for `CC(C)(C)c1ccc(COc2cc(-c3ccc(OC(F)(F)F)cc3)ccc2OCC(=O)O)cc1` : what is it?
Response given: 5.91

Challenge: Reported pIC50 for CCCCC(Oc1cc(Oc2ccc(OC(F)(F)F)cc2)ccc1OCc1ccc(C(C)(C)C)cc1)C(=O)O (stereo not shown) : what is it?
Response given: 6.17
